Here the recorded IC50 is given for each entry.
System: neutrophils
Test: Neutrophil migration assay (embelin as chemotactic agent, ATPlite readout)
Assay type: cell-based
Settings: Neutrophil; human neutrophils, embelin as chemotactic agent; read-out: Human Neutrophil migration inhibition IC50

Molecule: CCc1cc(C#CCNC(=O)OC(C)(C)C)ccc1-c1cn(CC2CCCCO2)nn1 (centres unmarked)
System Under Test: neutrophils
Reported Result: ≤ 300 nM

Molecule: Cc1cc(C#CCNc2ccccc2)ccc1-c1cn(CC2CCCCO2)nn1 (centres unmarked)
System Under Test: neutrophils
Reported Result: 300 to 1000 nM

Molecule: Cc1cc(N2CC(C)(OCc3ccccn3)C2)ccc1-c1cn(CC2CCCCO2)nn1 (centres unmarked)
System Under Test: neutrophils
Reported Result: ≤ 300 nM

Molecule: Cc1cc(C#CCN2CC(C)(C)C2)ccc1-c1cn(CC2CCCCO2)nn1 (centres unmarked)
System Under Test: neutrophils
Reported Result: 300 to 1000 nM

Molecule: Cc1cc(C#CCN(C)CC2CC2)ccc1-c1cn(CC2CCCCO2)nn1 (centres unmarked)
System Under Test: neutrophils
Reported Result: 300 to 1000 nM

# input molecule: CN(C)c1cc(C#CCNc2ccccc2)ccc1-c1cn(CC2CC(C)(C)CO2)nn1 (centres unmarked) ; wanted: its IC50 ≤ 300 nM

Another molecule to look at: Cc1cc(N2CC(C)(CNc3ccccc3)C2)ccc1-c1cn(CC2CCCCO2)nn1 (centres unmarked) 300 to 1000 nM

Another molecule to look at: Cc1cc(C#CCNCc2ccccc2)ccc1-c1cn(CC2CCCCO2)nn1 (centres unmarked) 300 to 1000 nM
